System: Amblyomma hebraeum
assay.name: Amblyomma hebaraeum - test (tick nymphs, immersion)
Format: in vivo
assay.setup: 100 ppm, tick nymphs immersed one minute, after 42 days
experimental.readout: efficacy (kill in %)
Express the reported value numerically, then name its unit.

Record for O=C(NC1CC1)c1cc(-n2cc(-c3c(Cl)cc(C(F)(C(F)(F)F)C(F)(F)F)cc3Cl)nn2)ccc1Cl [I-T48-3] under target or system Amblyomma hebraeum: efficacy (kill in %) reported as 90%

***
Record for Cc1cc(C(F)(C(F)(F)F)C(F)(F)F)cc(C)c1-c1cn(-c2cnc(Cl)c(C(=O)NC3CC3)c2)nn1 [I-T48-7] under target or system Amblyomma hebraeum: efficacy (kill in %) reported as 100%

Record for Cc1cc(C(F)(C(F)(F)F)C(F)(F)F)cc(C)c1-c1cn(-c2cnc(Cl)c(C(=O)NC3(C#N)CC3)c2)nn1 [I-T48-8] under target or system Amblyomma hebraeum: efficacy (kill in %) reported as 100%

Record for Cc1cc(C(F)(C(F)(F)F)C(F)(F)F)cc(C)c1-c1cn(-c2ccc(Cl)c(C(=O)NC3CC3)c2)nn1 [I-T48-1] under target or system Amblyomma hebraeum: efficacy (kill in %) reported as 100%
